Source of measurements: PubChem BioAssay AID248

What T/C was measured for each of the following?
System: L1210 leukemia ip in BDF1 mice, survival T/C
Method Description: NCI In Vivo Anticancer Drug Screen. Data for tumor model L1210 Leukemia (intraperitoneal) in B6D2F1 (BDF1) mice
Applied Conditions: endpoint: mean survival time; dose: 25.0 mg/kg/injection; schedule: Q01DX009 (ip); vehicle: saline with Tween-80; higher = longer survival
Toxic doses and inconclusive results are not listed.

### Prompt Look up T/C for this molecule: CC(=O)C(C(C)=O)C(c1ccc2c(c1)OCO2)C(C(C)=O)C(C)=O
### Response 92 % of control

### Prompt Look up T/C for this molecule: C=C(Cl)CNCC
### Response 97 % of control

### Prompt Look up T/C for this molecule: CN(C)c1nc(N(C)C)nc(N(C)C)n1
### Response 98 % of control

### Prompt Look up T/C for this molecule: N#Cc1ccc(CCCCCCc2ccc(C#N)cc2)cc1
### Response 95 % of control

### Prompt Look up T/C for this molecule: COc1ccc(OC)c(NC(=O)NNC(=O)c2ccccc2Cl)c1
### Response 100 % of control

* * *

System: L1210 leukemia ip in BDF1 mice, survival T/C
Method Description: NCI In Vivo Anticancer Drug Screen. Data for tumor model L1210 Leukemia (intraperitoneal) in B6D2F1 (BDF1) mice
Applied Conditions: endpoint: mean survival time; dose: 200.0 mg/kg/injection; schedule: Q01DX001 (ip); vehicle: saline; higher = longer survival
Inconclusive results and toxic doses are left out.
Recorded Endpoint: T/C

### Prompt Look up T/C for this compound: O=C1/C=C2/C=CC=CN2C(=O)/C=C2/C=CC=CN12
### Response 104 % of control

### Prompt Look up T/C for this compound: CC(C)(C)c1cc(O)c(C(C)(C)C)cc1O
### Response 94 % of control

### Prompt Look up T/C for this compound: C=C1C(=O)O[C@@H]2[C@H]1CC[C@H](C)[C@@H]1CCC(=O)[C@@]21C
### Response 100 % of control

### Prompt Look up T/C for this compound: Cc1cn(C2CC(O)C(CO)O2)c(=O)n(Cc2ccccc2)c1=O (stereo not given)
### Response 98 % of control

### Prompt Look up T/C for this compound: CCCCC(=O)N/N=C/c1ccc([N+](=O)[O-])cc1
### Response 89 % of control

### Prompt Look up T/C for this compound: Nc1ccccc1C(O)c1ccccc1 (stereo not given)
### Response 106 % of control

### Prompt Look up T/C for this compound: CC1(C)OCC(C2OC3OC(C)(C)OC3C2O)O1 (stereo not given)
### Response 100 % of control

### Prompt Look up T/C for this compound: O=C(/C=C/C(=O)n1ccc2ccccc21)n1ccc2ccccc21
### Response 101 % of control

### Prompt Look up T/C for this compound: N#CCC[N+]1([O-])CCCC1C(=O)O (stereo not given)
### Response 101 % of control

### Prompt Look up T/C for this compound: CC1CCCC(C)C1O (stereo not given)
### Response 101 % of control

### Prompt Look up T/C for this compound: O=C(O)c1ccccc1NC(c1ccccc1)c1ccc2cccnc2c1O (stereo not given)
### Response 89 % of control

### Prompt Look up T/C for this compound: CC1(C)CC2(C)CC(=O)C1C(C(=O)O)C2C(=O)O (stereo not given)
### Response 90 % of control

### Prompt Look up T/C for this compound: Cc1ccc(NC(=O)C(F)(F)C(F)(F)C(F)(F)F)cc1
### Response 97 % of control

### Prompt Look up T/C for this compound: Nc1nc(N)c(N=Nc2ccc(S(=O)(=O)Nc3ccccn3)cc2)c(=O)[nH]1
### Response 94 % of control

### Prompt Look up T/C for this compound: c1ccc(-c2cc(-c3ccccc3)c(-c3ccccc3)c(-c3ccccc3)c2)cc1
### Response 100 % of control

### Prompt Look up T/C for this compound: CNC(=S)N/N=C/c1cnccn1
### Response 104 % of control

### Prompt Look up T/C for this compound: C/C(=N\O)c1ccc2nc(C)cc(Cl)c2c1
### Response 109 % of control

### Prompt Look up T/C for this compound: O=C(O)CC(C(=O)O)c1ccccc1O (stereo not given)
### Response 90 % of control

### Prompt Look up T/C for this compound: O=S(=O)(Oc1ccc(Br)cc1)C1CC1c1ccccc1 (stereo not given)
### Response 98 % of control

### Prompt Look up T/C for this compound: OCC1OC(n2ccc3c(Cl)ncnc32)C(O)C1O (stereo not given)
### Response 110 % of control
